Target: T1, serum resistance-associated protein (SRA) from Trypanosoma brucei rhodesiense, recombinant SRA (SEQ ID NO: … (Trypanosoma brucei rhodesiense, UniProt O96637 31-274))
T1 construct: also called SRA protein
T1 sequence: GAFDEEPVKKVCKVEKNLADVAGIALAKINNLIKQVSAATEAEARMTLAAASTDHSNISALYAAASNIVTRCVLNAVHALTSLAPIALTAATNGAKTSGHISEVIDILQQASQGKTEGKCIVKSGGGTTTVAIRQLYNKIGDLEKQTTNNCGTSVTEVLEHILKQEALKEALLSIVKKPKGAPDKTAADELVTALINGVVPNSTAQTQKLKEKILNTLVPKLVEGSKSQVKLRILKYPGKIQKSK
Experiment: SPR, mAb captured, 25C, pH 7.4
pKd: −log10 of the molar value.
Parameter: pKd. Scope: all listed entries.
reportedMetric: pKd

1. H2bM10093N (antibody, V domains shown, Chimeric antibody, human variable domains and mouse constant domains; also called H2aM10093N; H2M10093N) VH: EVQLVESGGGLVKPGGSLRLSCVASGFTLSGYSMNWVRQAPGKGLEWVSSISTSSSYIYYADSVQGRFTISRDNAKNSLYLQMNSLRAEDTAVYYCVRKGANWIYFDYWGQGTLVTVSS VL: DIQMTQSPSSVSASVGDRVTITCRASQGISSLLAWFQQKPGKAPNLLIYAASSLQSGVPSRFSGSGSGTDFTLTISSLQPEDFATYYCQQAKSFPFTFGPGTKVDIK; 9.02
2. H1H10056P (antibody, V domains shown, Fully human antibody with human IgG1 Fc (prefix H1H)) VH: QVQLVESGGGVVQPGRSLRLSCSASGFTFSLYGMHWIRQAPGKGLEWVAVISYDGSNTYYGDSVKGRFTISRDNSKNTLYLQMNSLRTEDTAIYYCAKVYNWNYLFDYWGQGTLVTVSS VL: EIVLTQSPDTLSLSPGERATLSCRASQNVNNNFLAWYQQKPGQAPRLLIYGASSRATDIPERFSGSGSGTDFTLTISRLEPEDFAVYYCLHYVNSRTFGQGTKVEIK; ≥ 9.87
3. H1H10058P (antibody, V domains shown, Fully human antibody with human IgG1 Fc (prefix H1H)) VH: EVQLVESGGGLVQPGGSLRLSCAASGFTFNDFFMSWVRQAPGKGLEWVANLNQDGSERHYVDSVKGRFTISRDNAKNSLSLQMNSLRVEDTAVYYCAREGGDSWGQGTLVTVSS VL: DIVMTQSPDSLAVSLGERVTINCKSSQSILYSANNKDYLAWFHQKPGQPPKLLIYWASIRESGVPDRISGSGSGTDFTLTISSLQAEDVAVYYCQQYYLFPPTFGQGTKVEIK; ≥ 10.10
